Recorded apparent KD of MS2 coat protein values for a group of sequences are listed next.
System: MS2 coat protein
Experiment: apparent KD of MS2 coat protein; designed switch direction (-1 OFF switch, 1 ON switch): -1; higher = weaker reporter binding
Conditions: input ligand: FMN 200 uM
Answers without a unit are incomplete; give the number and then its unit.

{"columns": ["CHAIN", "apparent KD of MS2 coat protein"],
 "data": [
  ["GGUGAAGCAGGAUAUGUGCUGGCAUACAUGAGGAUCACCCAUGUCAUGUAGGAACCACGUAUAGAAGGGCUUCACC [Exclusion 5 (FMN-MS2 slide v.10)] (Eterna round: R97, puzzle: Exclusion 5)", "0.0507 µM"],
  ["GGUACUCAAAGAGUACCAAUACGAACAUGAGGAUCACCCAUGUAGGAUAUGCUACUCAAAGAGUAGCAGAAGGAUAUGAACCUU [Far Half Aptamer v9] (Eterna round: R96, puzzle: Exclusion NG 3)", "0.0225 µM"]
]}

apparent KD of MS2 coat protein recorded for this sequence, UCAGUUCUGCAAGGAUAUCGUCCUAGUUUGGUUCGAGAAGGUGCUUUUGUUUUUUCUUUGUGUUGACAUGAGGAUCACCCAUGU [JR_ExcNG1_Sub053] (Eterna round: R96, puzzle: Exclusion NG 1) , is 0.0207 µM

apparent KD of MS2 coat protein recorded for this sequence, UCCUGACAUGAGGAUCACCCAUGUGAGGAUAUGUGGAUCGAGUCAAAUCUCGUUCCGUGCAGAAGGCACAGGGC [EX1 A.21] (Eterna round: R97, puzzle: Exclusion 1) , is 0.0249 µM

apparent KD of MS2 coat protein recorded for this sequence, UGAUCUAGCGGAGGAUAUACAUGAGGAUCACCCAUGUAUAGUCUAUGACCGUAGUCGUGGAACGUGUAGAAGGCCGCUAGAUCU [JL ENG2 3.78] (Eterna round: R96, puzzle: Exclusion NG 2) , is 0.0184 µM

apparent KD of MS2 coat protein recorded for this sequence, CCGCUCCGUGUAGGAUAUUGGCCUGCUCUGGGUCGAGAAGGACAUGAGGAUCACCCAUGUAUGUUAUUAUCACGCGUGGCGCAU [Design 80] (Eterna round: R96, puzzle: Exclusion NG 1) , is 0.0418 µM

apparent KD of MS2 coat protein recorded for this sequence, ACAAGCUUUUGCUCGUCUUACAUGAGGAUCACCCAUGUCGGGUGCUUGCUUACGUCCAGCAUCUGGACCGUAGCAGU [-24.6, -43.1 kcal, 19% A] (Eterna round: R97, puzzle: Sensor, turn-off variant 1) , is 0.142 µM

apparent KD of MS2 coat protein recorded for this sequence, CCUAGUUGGUAAGGAUAUCCUACACUAUUCUGACCCGUGCAAGCUACAUGAGGAUCACCCAUGUGGGAGAAGGUGCGUCAACGC [Design 11] (Eterna round: R96, puzzle: Exclusion NG 2) , is 0.0291 µM

apparent KD of MS2 coat protein recorded for this sequence, GAUCAUGCAGGAUAUACAGUUUCCAUGAAAACAUGGUCCUCACAUGAGGAUCACCCAUGUAGAAGGGCAUGAUC [Omei Ex2 A28] (Eterna round: R97, puzzle: Exclusion 2) , is 0.151 µM

----------
Tested on: MS2 coat protein
Assay: apparent KD of MS2 coat protein; designed switch direction (-1 OFF switch, 1 ON switch): -1; higher = weaker reporter binding
Conditions: input ligand: FMN 200 uM
Recorded apparent KD of MS2 coat protein values for a group of sequences are listed next.
Value expressed in µM; do not type the unit.

apparent KD of MS2 coat protein recorded for this sequence, AAUUAGCAAGCAAGAUCCCACAUGAGGAUCACCCAUGUGCUCGUCUUAUAAGGUACUGUGACGAUAGUCACGGUACC [Mat - Sensor, turn-off var - Eli Mod - D49] (Eterna round: R97, puzzle: Sensor, turn-off variant 1) , is 0.0429

apparent KD of MS2 coat protein recorded for this sequence, ACAUGAGGAUCACCCAUGUAAUCAUGAUGGCUGAUGUAGAGCUAGGAUAUGAGUGGCUUUCUAUCUCAGAAGGAGCUAGACUGG [Deportation 41 - Jieux - Exclusion NG 3] (Eterna round: R96, puzzle: Exclusion NG 3) , is 0.0293

apparent KD of MS2 coat protein recorded for this sequence, UGAGUGCUGCGAGGAUAUACAUGAGGAUCACCCAUGUUAUCGUGUGAGGCUUUGCCUCACACGAAGUAGAAGGCGCAGUACUCU [JL ENG2 1.11] (Eterna round: R96, puzzle: Exclusion NG 2) , is 0.00984

apparent KD of MS2 coat protein recorded for this sequence, GUUUUCAGACGGAGAUCCUACAUGAGGAUCACCCAUGUCUCUCUUGUUAAUUGCUCGUCUUUUCCUCCUCUGUUCUC [Elimod 34 - Jieux - Sensor, turn-off variant 1] (Eterna round: R97, puzzle: Sensor, turn-off variant 1) , is 0.545

----------
Test system: MS2 coat protein
Experiment: apparent KD of MS2 coat protein; designed switch direction (-1 OFF switch, 1 ON switch): 1; higher = weaker reporter binding
Details: Eterna round: R95; input ligand: FMN 200 uM
OBSERVABLE: apparent KD of MS2 coat protein (nM)
Value expressed in nM; do not type the unit.

apparent KD of MS2 coat protein recorded for this sequence, GGUCCAGCCUGAGCUGGACAAGAGCAUGUACAUGAGGAUCACCCAUGUCAUGUACAAGCUUUUUGCUCGUCUUAAAA [JL mod - D87 - 2] (puzzle: Sensor for hsa-mir-208a) , is 433

apparent KD of MS2 coat protein recorded for this sequence, GGUUUAGUCAGGUGCAGUUGCACCUGAAAACAUGAGGAUCACCCAUGUUUGGGACAAGCUUUGCUCCUCGUCUUGCA [Orinen] (puzzle: Sensor for hsa-mir-208a) , is 341

apparent KD of MS2 coat protein recorded for this sequence, UAGAGAGGAAGCGAGGAUAUCGUGUUAGGUACAUGAGGAUCACCCAUGUUGUAGGUAGAGGUAGGCGAGAAGGCGCAGGAGAGGG [JR_SS2_Sub093] (puzzle: Same State 2) , is 56.3

apparent KD of MS2 coat protein recorded for this sequence, GGAAUCUCCAGAGAGGAUAUGCGGCGUUAAACAUGAGGAUCACCCAUGUCCUUCGAAUGGGUAACGCAGAAGGCUCUACGGUUCC [Shapeless] (puzzle: Same State 2) , is 115

apparent KD of MS2 coat protein recorded for this sequence, GCUCAUAGUAUAUGGGUACAAGCUUUUUGACAUGAGGAUCACCCAUGUACUCGUCUUAUGUGCAGUCCGUAGACUGC [JL-shm-2.21 Brourd mod] (puzzle: Sensor for hsa-mir-208a) , is 104

----------
System: K4 kissing-loop RNA reporter;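 also: bound reporter read as fluorescence of individual clusters on recovered sequencing chips by microscopy, with normalized cluster intensities fitted with a binding model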
Assay: apparent KD of K4 kissing-loop reporter; higher = weaker reporter binding
Details: Eterna round: R107; input ligand: theophylline 20 uM
Recorded apparent KD of K4 kissing-loop reporter values for a group of sequences are listed next.
Answers without a unit are incomplete; give the number and then its unit.

Per the reported K4 kissing-loop RNA reporter data, AGGAUCCGUCGACAAAAGUCGACAAUAACCAAGGAUAUGACGAAAGUCAGAAGGUGGUCUUAUGACCAGUGAUGUUGGUGGAUCC [FmnA 15 #SwitchBubble #K4Late] has apparent KD of K4 kissing-loop reporter of 0.197 µM

Per the reported K4 kissing-loop RNA reporter data, AACGCUGGAUGAAUAACAUCUAGCGAAAUUCGAGGACCGGUACGGCCGCCACUCGAGCUAACUGCGAGUGAUGUUCGAUAAUAAA [Mat - Mod of OpenEnded 3 - D5] has apparent KD of K4 kissing-loop reporter of 0.469 µM

Per the reported K4 kissing-loop RNA reporter data, UGAUUGCCAGUGAUGUUGGCAUAAACUGAAGGAGCGCGUGAAAACGCAGGUAGGUCGCAGUACCAUGCCAAUUGAUCGAAAGAUC [KL-XArg-A2] has apparent KD of K4 kissing-loop reporter of 0.169 µM

Per the reported K4 kissing-loop RNA reporter data, AAGUGUGUGGCGGCCGCCACUAGGAUCCAGUGAUGUUGGAGAUAUCUCGUAAGAGAUAUCCGCCAUAGGACCGGGCCAUAUAGAA [Same State - Tryptophan B (Freestyle 16)] has apparent KD of K4 kissing-loop reporter of 0.161 µM

----------
Tested on: MS2 coat protein
Test: apparent KD of MS2 coat protein, switch ON state; designed switch direction (-1 OFF switch, 1 ON switch): -1; higher = weaker reporter binding
Conditions: FMN input: 0 or 200 uM; Eterna round: R93 (includes R88 designs)
Classify by measured apparent KD of MS2 coat protein: 1 (yes) if it is equal to or exceeds 30 nM, 0 (no) if it is smaller.

{"columns": ["CHAIN", "GROUP_LABEL"],
 "data": [
  ["AGCUAGUCAGGAUAUACGAACAGGUCAAAAGACUUGAAGGGACAUGAGGAUCACCCAUGUAGAAGGGACUAGCA [Mat - Exclusion 2 - JL mod - D25]", "1 (yes)"],
  ["AGCUAGUCAGGAUAUACGAACAUGUCACAAGACGUGAAGGGACAUGAGGAUCACCCAUGUAGAAGGGACUAGCA [74%, Web mod - With 1 more C's]", "1 (yes)"],
  ["AGGGAGUCAGGAUAUCGGAAAACAAAACAACGAAAAAAAGACGAGAAGGGACAUGAGGAUCACCCAUGUAAGAA [milkweed 17]", "1 (yes)"],
  ["AGGAUGUCAGGAUAUGCGUGAAGAAUAAAACAAAUAACAACGCAGAAGGGACAUGAGGAUCACCCAUGUUAAGA [May 46]", "1 (yes)"],
  ["AAAAACAUAGGAUAUACAUGAGGAUCACCCAUGUUAAAAUAAAGAAAGGGAGAAAUAAGUAGAAGGAUGAAAAA [Meechl Ex3 3]", "0 (no)"],
  ["AAAAGACAUGAGGAUCACCCAUGUGAGGAUAUCGGAAAAGGAAAAAAAAAAAAGAAGACGAGAAGGCACACCAA", "1 (yes)"],
  ["AGAAAGUCAGGAUAUACGAAAGUGCGAAAGCACACAAGGGAACAUGAGGAUCACCCAUGUAGAAGGGACAAGAA [Diamond 78]", "1 (yes)"],
  ["AAAAAGUCAGGAUAUCGGAAAAUAAAAAUAAAAAAAAAAAACGAGAAGGGACAUGAGGAUCACCCAUGUAUGAC [Mat - Exclusion 4 - Mayanna - D113]", "1 (yes)"]
]}

Quick check, apparent KD of MS2 coat protein >= 30 nM? AAGAAGUGAGGAUAUCGUUGUCGUCACAAAAGUGAUGACGACGAGAAGGCACAUGAGGAUCACCCAUGUAAAGA [Opal 28]
1 (yes)

Quick check, apparent KD of MS2 coat protein >= 30 nM? AAAAAACAUGAGGAUCACCCAUGUGAGGAUAUGCUGCGAAUAAAGAAAGAAGAAAGCAGCAGAAGGCACACCAA [Amethyst 77]
0 (no)

Quick check, apparent KD of MS2 coat protein >= 30 nM? AACUGUACAGGAUAUACAUGAGGAUCACCCAUGUGAGAAUUAAGUGGAAAACCACAAAGUAGAAGGGUACAGGA [Mat - Exclusion 3 - JL mod - D18]
0 (no)

Quick check, apparent KD of MS2 coat protein >= 30 nM? AACAGUACAGGAUAUACAUGAGGAUCACCCAUGUGAGAAUUAAGUGGCGUACCACAAAGUAGAAGGGUACUGGA [JL Maslow Revisted mod 16]
1 (yes)

Quick check, apparent KD of MS2 coat protein >= 30 nM? AAAAAACAUGAGGAUCACCCAUGUCAGGAUAUCGAAAGAAAAAAAAAGAAAAAAAAAACGAGAAGGGACAAAAA [Amethyst 28]
1 (yes)
